system tested: Cdc7/Dbf4 (Homo sapiens)
Sequence (O00311 whole entry): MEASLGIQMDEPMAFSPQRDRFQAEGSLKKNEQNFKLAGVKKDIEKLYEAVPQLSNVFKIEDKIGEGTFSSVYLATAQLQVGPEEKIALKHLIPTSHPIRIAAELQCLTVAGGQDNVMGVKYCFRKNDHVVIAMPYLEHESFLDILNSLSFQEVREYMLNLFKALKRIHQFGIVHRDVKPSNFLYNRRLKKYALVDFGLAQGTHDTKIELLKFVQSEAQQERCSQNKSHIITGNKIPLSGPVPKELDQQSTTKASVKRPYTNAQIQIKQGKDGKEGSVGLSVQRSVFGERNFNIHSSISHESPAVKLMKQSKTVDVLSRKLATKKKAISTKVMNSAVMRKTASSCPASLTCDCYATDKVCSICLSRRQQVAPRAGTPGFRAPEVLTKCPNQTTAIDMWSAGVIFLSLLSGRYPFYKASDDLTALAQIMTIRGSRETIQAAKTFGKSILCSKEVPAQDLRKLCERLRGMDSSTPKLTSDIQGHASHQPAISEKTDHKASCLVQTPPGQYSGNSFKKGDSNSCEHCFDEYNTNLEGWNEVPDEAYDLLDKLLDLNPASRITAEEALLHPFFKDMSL
Sequence (Q9UBU7 whole entry partner): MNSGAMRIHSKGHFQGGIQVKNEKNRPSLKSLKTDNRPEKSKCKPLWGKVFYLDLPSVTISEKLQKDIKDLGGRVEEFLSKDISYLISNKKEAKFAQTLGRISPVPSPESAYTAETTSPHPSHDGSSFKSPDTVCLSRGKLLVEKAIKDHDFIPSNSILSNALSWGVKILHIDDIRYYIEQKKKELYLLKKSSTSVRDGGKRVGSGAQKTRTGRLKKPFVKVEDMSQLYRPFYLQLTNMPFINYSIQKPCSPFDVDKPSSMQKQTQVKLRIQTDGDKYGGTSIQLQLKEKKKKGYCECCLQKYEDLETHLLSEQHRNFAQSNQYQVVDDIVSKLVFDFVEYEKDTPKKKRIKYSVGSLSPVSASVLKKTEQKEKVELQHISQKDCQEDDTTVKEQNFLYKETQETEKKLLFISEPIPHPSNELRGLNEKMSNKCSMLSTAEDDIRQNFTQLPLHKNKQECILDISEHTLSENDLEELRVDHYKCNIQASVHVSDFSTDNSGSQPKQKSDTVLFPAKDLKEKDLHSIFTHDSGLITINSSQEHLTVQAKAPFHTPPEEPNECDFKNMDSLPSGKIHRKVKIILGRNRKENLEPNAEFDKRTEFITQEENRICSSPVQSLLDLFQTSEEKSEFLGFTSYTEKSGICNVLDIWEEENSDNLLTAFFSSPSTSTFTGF
procedure text: Cdc7 Biochemical Assay Method 3: Cdc7/Dbf4 Enzyme TR-FRET Assay measuring pS40MCM2
details: 1 μM ATP, read-out: Biochemical Method 3 (pIC50) (converted)
assay metric: IC50 (nM)
Give bare numbers, in nM.

Worked examples follow.
molecule	system tested	value units	reading
O=c1[nH]c(-c2ccnc(F)c2)nc(N2CCN(c3nc[nH]n3)CC2)c1Cl [Compound 295]	Cdc7/Dbf4 (Homo sapiens)	nM	0.891
CC1(C)CN(c2nc(-c3ccnc(F)c3)[nH]c(=O)c2Cl)CCCO1 [Compound 301]	Cdc7/Dbf4 (Homo sapiens)	nM	10.5
O=c1[nH]c(-c2ccnc(F)c2)nc(O[C@@H]2CCCNC2)c1Cl [Compound 330]	Cdc7/Dbf4 (Homo sapiens)	nM	0.955
O=c1[nH]c(-c2ccncc2)nc(N2CCN(CC(F)F)CC2)c1Cl [Compound 147]	Cdc7/Dbf4 (Homo sapiens)	nM	1.55
O=c1[nH]c(-c2ccnc(F)c2)nc(N2CCC3(CCNCC3)C2)c1Cl [Compound 230]	Cdc7/Dbf4 (Homo sapiens)	nM	6.61

Please report IC50 for every entry that follows.
1. O=c1[nH]c(-c2ccnc(F)c2)nc(N2CCC(C3CCOCC3)C2)c1Cl (centres unmarked) [Compound 228]
2. O=C1COCCN(c2nc(-c3ccnc(F)c3)[nH]c(=O)c2Cl)C1 [Compound 208]
3. O=c1[nH]c(-c2ccncc2)nc(N2C[C@H]3C[C@@H]2CN3)c1Cl [Compound 161]
4. O=c1[nH]c(-c2ccnc(F)c2)nc(N2CC[C@@H](O)C2)c1Cl [Compound 214]
5. C[C@@H]1CNCCN1c1nc(-c2ccncc2)[nH]c(=O)c1Cl [Compound 364]
6. O=c1[nH]c(-c2ccnc(F)c2)nc(N2CCCC2)c1Cl [Compound 276]

1. 53.7
2. 0.49
3. 1.74
4. 14.8
5. 1.41
6. 6.31

* * *

Would you kindly list EC50 for each of these compounds?
System: Cdc7 (pS53MCM2 levels in HCT116 cells)
procedure text: Cdc7 Cell Pharmacodynamics Assay Method 1: pS53MCM2 levels in HCT116 cells, 6 hours
Assay type: cell-based
details: Homo sapiens, HCT-116, 6 h, read-out: Biomarker Method 1 (pEC50) (converted)
One number for each entry, in nM.

compound	value units	EC50
O=c1[nH]c(-c2ccncc2)nc(N2CCSCC2)c1Cl [Compound 128]	nM	79.4
C[C@H]1COCCN1c1nc(-c2ccncc2)[nH]c(=O)c1Cl [Compound 365]	nM	263

As a next step, examine the compound that follows.
State, in one line, measured EC50 of C[C@@H]1CNCCN1c1nc(-c2ccnc(F)c2)[nH]c(=O)c1Cl [Compound 323]
22.4

* * *

System: Cdc7 (pS53MCM2 levels in HCT116 cells)
procedure text: Cdc7 Cell Pharmacodynamics Assay Method 1: pS53MCM2 levels in HCT116 cells, 6 hours
Assay type: cell-based
details: Homo sapiens, HCT-116, 6 h, read-out: Biomarker Method 1 (pEC50) (converted)
For each entry below, report its EC50 value.
One number for each entry, in nM.

Worked set:
molecule	EC50 [nM]
CC(F)(F)C1CN(c2nc(-c3ccncc3)[nH]c(=O)c2Cl)CCN1 (stereo not shown)	66.1
C[C@H]1CN(c2nc(-c3ccncc3)[nH]c(=O)c2Cl)CCN1C	107
CC(=O)N1CCN(c2nc(-c3ccncc3)[nH]c(=O)c2Cl)C[C@@H]1C	468
O=c1[nH]c(-c2ccncc2)nc(N2CCC3(CC2)COC3)c1Cl	501
O=c1[nH]c(-c2ccncc2)nc(N2CCN[C@H](C(F)(F)F)C2)c1Cl	324

Count: 2. Required value per item: EC50.
1. O=C(OCc1ccccc1)N1CCN(c2nc(-c3ccncc3)[nH]c(=O)c2Cl)CC1
2. O=c1[nH]c(-c2ccncc2)nc(N2CCN(CCO)CC2)c1Cl

[759, 912]

Please give EC50 for each item listed below.
1. CC1CC(C)CN(c2nc(-c3ccncc3)[nH]c(=O)c2Cl)C1 (stereo not shown)
2. O=c1[nH]c(-c2ccnc(F)c2)nc(N2CCN[C@@H](C(F)(F)F)C2)c1Cl
3. O=c1[nH]c(-c2ccncc2)nc(N2C3CCCC2COC3)c1Cl
4. O=c1[nH]c(-c2ccncc2)nc(N2CCN(CC(F)(F)C(F)F)CC2)c1Cl
5. CC(C)(C)[C@H]1CN(c2nc(-c3ccncc3)[nH]c(=O)c2Br)CCN1

1150
12.3
63.1
871
269

Provide EC50 values for the following items, in order.
1. CC[C@@H]1CNCCN1c1nc(-c2ccncc2)[nH]c(=O)c1Cl
2. O=c1[nH]c(-c2ccnc(F)c2)nc(N2CCCC(F)(F)C2)c1Cl
3. CC(C)[C@H]1CN(c2nc(-c3ccncc3)[nH]c(=O)c2F)CCN1
4. CC1(C)CN(c2nc(-c3ccncc3)[nH]c(=O)c2Cl)CCN1
5. O=c1[nH]c(-c2ccncc2)nc(N2CCOC(C(F)(F)F)C2)c1Cl (stereo not shown)
6. O=c1[nH]c(-c2ccncc2)nc(N2CCNC(C(F)(F)F)C2)c1Cl (stereo not shown)
7. CC(C)CN1CCN(c2nc(-c3ccncc3)[nH]c(=O)c2Cl)CC1

1. 245
2. 33.1
3. 178
4. 2400
5. 209
6. 44.7
7. 977

Quick batch: EC50 for everything below.
1. O=c1[nH]c(-c2ccncc2)nc(N2CCN(CC(F)(F)F)CC2)c1Cl
2. C#CCN1CCN(c2nc(-c3ccncc3)[nH]c(=O)c2Cl)CC1

[229, 427]
